meta.source: the supplement of paper PMC11246515

Assay: total protein half-life in vivo (active degradation + dilution); higher = more stable protein
Conditions: wild type E. coli NCM3722; growth: N-lim chemostat; doubling time 6 h
OBSERVATION TYPE: total protein half-life in vivo (h)
The response must be a number in h with no trailing unit.

Query :: Form field: reported total protein half-life in vivo of MKKFAAVIAVMALCSAPVMAAEQGGFSGPSATQSQAGGFQGPNGSVTTVESAKSLRDDTWVTLRGNIVERISDDLYVFKDASGTINVDIDHKRWNGVTVTPKDTVEIQGEVDKDWNSVEIDVKQIRKVNP [P0ADU5]
Result :: 6.22

###

Assay: total protein half-life in vivo (active degradation + dilution); higher = more stable protein
Settings: wild type E. coli NCM3722; growth: C-lim chemostat; doubling time 6 h
OBSERVATION TYPE: total protein half-life in vivo (h)
The response must be a number in h with no trailing unit.

MSIISTKYLLQDAQANGYAVPAFNIHNAETIQAILEVCSEMRSPVILAGTPGTFKHIALEEIYALCSAYSTTYNMPLALHLDHHESLDDIRRKVHAGVRSAMIDGSHFPFAENVKLVKSVVDFCHSQDCSVEAELGRLGGVEDDMSVDAESAFLTDPQEAKRFVELTGVDSLAVAIGTAHGLYSKTPKIDFQRLAEIREVVDVPLVLHGASDVPDEFVRRTIELGVTKVNVATELKIAFAGAVKAWFAENPQGNDPRYYMRVGMDAMKEVVRNKINVCGSANRISA [P0AB74]    3.2

Here's the next entry for you.
Query :: Form field: reported total protein half-life in vivo of MDIVFIEQLSVITTIGVYDWEQTIEQKLVFDIEMAWDNRKAAKSDDVADCLSYADIAETVVSHVEGARFALVERVAEEVAELLLARFNSPWVRIKLSKPGAVARAANVGVIIERGNNLKENN [P0AC16]
Result :: 6.02
